test system: MS2 coat protein; experiment: apparent KD of MS2 coat protein; designed switch direction (-1 OFF switch, 1 ON switch): -1; higher = weaker reporter binding; details: input ligand: none
readout.kind: apparent KD of MS2 coat protein (nM)
One number for each entry, in nM.

Here's what some known entries look like.
ACGAUGAUCGAAAAGUGUAAAUCGACAUGAGGAUCACCCAUGUAGGAUAUGGCUACGAAAAGUAGUCAGAAGGGCAUGUCAUCA [3 Av 11 mod - 1] (Eterna round: R96, puzzle: Exclusion NG 3)	31.1
UUUUUAUAUGAAGGAUAUACUUAACAUGAGGAUCACCCAUGUGGUGUUGUGAGUGAGUGAGUUUAGUAGAAGGUCAAUUAUCUU [JMF's solution 14] (Eterna round: R96, puzzle: Exclusion NG 2)	373
UUUUAUAGAGGAUAUGCGUGAAUAUAUAUUCAUGGAAAUUUACAUGAGGAUCACCCAUGUAGAAGGCUGUGUUU [LRO-Excl2-19-mod 090 by JR] (Eterna round: R97, puzzle: Exclusion 2)	14.5

I would be grateful if you could provide apparent KD of MS2 coat protein for each of the following entries.
1. ACGGCGGCUCUAGGAUAUGACGACAUGAGGAUCACCCAUGUAGCCUUAGCCUUCACGAAAAUCGAUCAGAAGGAGAGCUCCAGG [Eternabot solution 19] (Eterna round: R96, puzzle: Exclusion NG 2)
2. GCGCACCUACCAAAAGGUAGGCUAACAUGAGGAUCACCCAUGUAGGAUAUCGAUUGCUUUGCAGUCGAGAAGGACAUGAUGCGC [JL ENG3 3.80 Mod 11] (Eterna round: R96, puzzle: Exclusion NG 3)
3. AAGACACAUGAGGAUCACCCAUGUGAGGAUAUUCGAUGCUGAGCGUAAGCUUAGUAUCGGAGAAGGCACAAAGG [Salishxclusion 7 - Jieux - Exclusion 1] (Eterna round: R97, puzzle: Exclusion 1)
4. GUCUUAAGUUAAACCGAUUACAUGAGGAUCACCCAUGUGAACAUGACAGUCCGCAUGAGGAGUUUCUUGCUCGUCAU [Eternabot (L1) Solution 28] (Eterna round: R97, puzzle: Sensor, turn-off variant 1)
5. GAUUAACAUGAGGAUCACCCAUGUGAGGAUAUACGAGAAUAGAUUUCGAUCAGAUAGAGUAGAAGGCACAGAUA [EX1 #1] (Eterna round: R97, puzzle: Exclusion 1)
6. AAUUCGCAAGCGAGAUCCCACAUGAGGAUCACCCAUGUGCUCGUCUUAUAAGGUACUGUGACGAAAGUCACGGUACC [Mat - Sensor, turn-off var - Eli Mod - D85] (Eterna round: R97, puzzle: Sensor, turn-off variant 1)
7. AAUUAGCAAGCAAGAUCCCACAUGAGGAUCACCCAUGUGCUCGUCUUAUAAGGUACUGUGACGAGAGUCACGGUACC [Mat - Sensor, turn-off var - Eli Mod - D48] (Eterna round: R97, puzzle: Sensor, turn-off variant 1)
8. GGAUCGAGUGUGAGGAUAUGCUGGUCCUUGGAUCAGCAGAAGGCACAUGAGGAUCACCCAUGUGAAGACGGUCC [Copy of R95 JL bmx4 3.16] (Eterna round: R97, puzzle: Brourd's mod of Exclusion 4)

Solution:
17.6
30
39.8
46.8
27
17.1
50.5
38.6

I would be grateful if you could provide apparent KD of MS2 coat protein for each of the following entries.
1. AAAGUAGGAGGAUAUGGAUAUAGUAACAUGAGGAUCACCCAUGUUCUUGGUGUUCGUUACCCAGAAGGCCUGACAC [Eternabot (L1) Solution 64] (Eterna round: R97, puzzle: Exclusion 5)
2. ACAAGCAUUUAUCUUUUCAAAUAUUAUCGUCUUAUAAUUACAUGAGGAUCACCCAUGUAUAGAGGGUGAGAGAUACU [JR_Sensorv2_tov2_Sub552] (Eterna round: R96, puzzle: Sensor v2, turn-off variant 2)
3. ACAUGAGGAUCACCCAUGUGAAAAGAAUGGCUGACACAGAGAUAGGAUAUAUGUGCAUAUCUAACAUAGAAGGGUCAUGACUGG [Deportation 79 - Jieux - Exclusion NG 3] (Eterna round: R96, puzzle: Exclusion NG 3)
4. UAAGCUCUGUCAGGAUAUCCCUGUAAACGCAACGGAGAAGGGACAUGAGGAUCACCCAUGUGCGGGCCCAACGCGCUUGGGUCC [Gelaisve] (Eterna round: R96, puzzle: Exclusion NG 1)

Solution:
91
58.1
33.1
26.3

I would be grateful if you could provide apparent KD of MS2 coat protein for each of the following entries.
1. AUAGGAGUAGGAUAUUCAGUUCGACACAUGAGGAUCACCCAUGUCGCUGUGGCCGGGCACGGAGAAGGAUUGUUGU [Eternabot (L1) Solution 15] (Eterna round: R97, puzzle: Exclusion 5)
2. AAAACCAGAGGAUAUGCGCAUAGAUCAGACUUUGUUUCUGAACAUGAGGAUCACCCAUGUAGAAGGCUGUAAAA [Ex2 #82] (Eterna round: R97, puzzle: Exclusion 2)
3. GGCCCAUGAGGAUAUCAGUCUGGAUCAGACUAGAUCCUGACUGAGAAGGCACAUGAGGAUCACCCAUGUAGGCC [Eli 4x 4.30] (Eterna round: R97, puzzle: Exclusion 4)

Solution:
1: 36.3; 2: 20.5; 3: 23.6
